PROTOCOL DESCRIPTION: yeast display, Sf9 membrane polyspecificity reagent, FACS + sequencing; frameworks hold sequencing errors
MEASURED PROPERTY: polyreactivity (PSR sort gate)

>  <ENTRY SEQUENCE>
QVQLLESGGGLVQAGGSLRLSCAASGFTFEDNAMGWYRKAPGKERELVAADGTNYADSVKGRFTISRDNAKNTVYLQMNSLKPEDTAVYYCARYARQVTPLSIGLYDYWGQGTQVTVSS

>  <REPORTED>
low polyreactivity

$$$$
>  <ENTRY SEQUENCE>
QVQLVESGGGLVQAGGSLRLSCAASGSTYPYYAMGWYRQAPGKERELVAAITSGGSTNYADSVKGRFTISRDNAKNTVYLQMNSLKPEDTAVYYCNADSSGWFPFDYWGQGTQVTVSS

>  <REPORTED>
low polyreactivity

$$$$

* * *

PROTOCOL DESCRIPTION: yeast display, Sf9 membrane polyspecificity reagent, FACS + sequencing; frameworks hold sequencing errors
MEASURED PROPERTY: polyreactivity (PSR sort gate)

Examples from the recorded data:
>  <ENTRY SEQUENCE>
QVQRVDSRGGLVQAGGSLRLSCAASGRIFRPNAMGWYRQAHGKQRELVAAITSNGGRTYYADSVKGRFTISRDNAKYTVYLQMNSLKPEDTAVYYCNAAPFRSGDGYWGQGTQVTVSS

>  <polyreactivity (PSR sort gate)>
high polyreactivity

$$$$
>  <ENTRY SEQUENCE>
QVQLVESGGGLVQAGGSLRLSCAASGSIFYGYAMGWYRQAPGKERELVAVITDGGGSTYYADSVKGRFTISRDNAKNTVYLQMNSLKPEDTAVYYCAADSWGPYYYSSYSYDYWGQGTQVTVSS

>  <polyreactivity (PSR sort gate)>
low polyreactivity

$$$$
>  <ENTRY SEQUENCE>
QVQHVESGGGLVQAGGSLRLSCAASGRIFHWYAMGWYRQAPGKERELVAAIRWTGGSTYYADSVKGRFTISRDNAKNTVYLEMNSLKPEDTAVYYCAAKGYTGIFYEMDYWGQGTQVTVSS

>  <polyreactivity (PSR sort gate)>
low polyreactivity

$$$$
>  <ENTRY SEQUENCE>
QVQLVESGGGLVQAGGSFRLSCAASGSIFVVYAMGWYRQAPGKERELVAAITSGGSTYYADSVKGRFTISRDNAKNTVYLQMNSLKPEDTAVYYCATTYRDGVYELTTFDYWGQGTQVTVSS

>  <polyreactivity (PSR sort gate)>
low polyreactivity

$$$$

Then there is this sequence:
Name the recorded polyreactivity (PSR sort gate) for QVQLVESGGGLVQAGGSLSLSCAASGSIFGDYVLGWYRQAPGKERELVAAINRGGSTYYADSVKGRFTISRDNAKNTVYLQMNSLKPEDTAVYYCAAGYPSWYYGYPYDSWGLGTQVTVSS .
low polyreactivity

* * *

PROTOCOL DESCRIPTION: yeast display, Sf9 membrane polyspecificity reagent, FACS + sequencing; frameworks hold sequencing errors
MEASURED PROPERTY: polyreactivity (PSR sort gate)

>  <ENTRY SEQUENCE>
QVQLVESGGGLVQAGGSLRLSCAASGRIFVDNDMGWYRQAPGKERELVAAISGNGGNTNYADSVKGRFTISRDNAKNTVYFQMNSLKPEDTAVYYCAATYPVGHVYRYDYWGQGTQVTVSS

>  <MEASURED PROPERTY>
polyreactivity (PSR sort gate)

>  <REPORTED>
low polyreactivity

$$$$
>  <ENTRY SEQUENCE>
QVQLVESGGGLVQAGGSLRLSCAASGSTFEYYVMGWYRQAPGKERELVAAISGSGGGTYYADSVKGRFTISRDNAKNTVYLQMNSLKPEDTAVYYCAAVATQEKYDYWGQGTQVTVSS

>  <MEASURED PROPERTY>
polyreactivity (PSR sort gate)

>  <REPORTED>
low polyreactivity

$$$$
>  <ENTRY SEQUENCE>
QDQLVESGGGLVQAGGSLRLSCAASGRIFPWYTMGWYRQAPGKERELVAVISSGGRTHYADSVKGRFTISRDNAKNTVYLLMNSLKPEDTAVYYCAAESRYQRYDYWGQGTKVTVSS

>  <MEASURED PROPERTY>
polyreactivity (PSR sort gate)

>  <REPORTED>
high polyreactivity

$$$$
>  <ENTRY SEQUENCE>
QVQLVESGGGLVQAGGSLRLSCAASGRTFSNAMGWYRQAPGKERELVADISSGGSTNYADSVKGRFTISRDNAKNTVYLQMNSLKPEDTAVYYCAAVSGSLYGYSDDYWGQGTQVTVSS

>  <MEASURED PROPERTY>
polyreactivity (PSR sort gate)

>  <REPORTED>
low polyreactivity

$$$$
>  <ENTRY SEQUENCE>
QVQLVESGGGLVQAGGSLRLSCAASGSIFYRNVMGWYRQAPGKERELVAAITGSGGITYYADSVKGRFTISRDNAKNTVYLQMNSLKPEDTAVYYCNKTSFLVKLDYWGQGTQVTVSS

>  <MEASURED PROPERTY>
polyreactivity (PSR sort gate)

>  <REPORTED>
low polyreactivity

$$$$
>  <ENTRY SEQUENCE>
QVQLVESGGGLVQAGGTLRLSCAASGVIFKVYGMRWYRQAPGKERELVAAISWTTGGTYYADSVKGRFTISRDNAKNTVYLQMNSLKPEDTAVYYCNAPSWYYSGVRYDYWGQGTQVTVSS

>  <MEASURED PROPERTY>
polyreactivity (PSR sort gate)

>  <REPORTED>
high polyreactivity

$$$$
>  <ENTRY SEQUENCE>
QVQLVESGGGLFQEGGSLRISCAPSGSTFGGYVMGWYRQAPGKDRELVAAIRRVGRTYYADSVKGRFTISRDNAKNTVYLQINSLKAEVTAVYYFAADWAGWEGYRMDYWGQGTQVTVSS

>  <MEASURED PROPERTY>
polyreactivity (PSR sort gate)

>  <REPORTED>
low polyreactivity

$$$$
>  <ENTRY SEQUENCE>
QVQLVDSGGGLVHAGGSLSLSCAASGRIFSHYALGWYRQAPGKERELVAAISSRGGRTYYADSVKGRFTISRDNAKNTVYLQMNSLKPEDPAVYYCAAVIRSVYSYYEYDYWGQCTQVTVSS

>  <MEASURED PROPERTY>
polyreactivity (PSR sort gate)

>  <REPORTED>
high polyreactivity

$$$$
>  <ENTRY SEQUENCE>
QVQLVESGGGLVQAGGSLRLSCAPSGRTFWTNAMGWYRQAPGKERELVAAIRNSGGRTYYADSVKGRFTISRDNAKNTVFLQMNSLKPEDSAVYYCNARSSIRPRQGGYEHWGQGTQVTVSS

>  <MEASURED PROPERTY>
polyreactivity (PSR sort gate)

>  <REPORTED>
low polyreactivity

$$$$
>  <ENTRY SEQUENCE>
QVQLVESGGGFVQAGGSLRLTCAASGRTFAKNTMGWYRQAPGKERELVAAITWRGGTTYYADSVKGRVTISRDNAKNTVYLQMNSLKPEDTAVYYCAKDRYYGYFRSRSDYWGQGTQVTVSS

>  <MEASURED PROPERTY>
polyreactivity (PSR sort gate)

>  <REPORTED>
high polyreactivity

$$$$

Then there is this sequence:
Name the recorded polyreactivity (PSR sort gate) for QVHLVESGGGLVQAGGSLSFSCAASGSNFTFNTMVWYRQAPGKEREKVATISSGGRTYYADSVKGRFTISRDNAKNTVYLQMNSLKPEDTPVFYCNKGYYGYTYVEYNYWGQGTPVTVSS .
low polyreactivity

Cited source for all entries: the nanobody polyreactivity screen of Harvey et al. (2022)
